system: 695427-040-R-J1-PDC complex spheroid viability; experiment: Anticancer human tumor 695427-040-R-J1-PDC patient-derived colon adenocarcinoma cell line growth inhibition [RAS]; conditions: second compound 1 µM; first compound 0.01 µM; stronger effect = lower value
Lab note: compare viability, T/C with 60%, writing Criterion met if less and Criterion not met if equal or more.

compound | systemUnderTest | labelClass
Nc1ccn(C2OC(CO)C(O)C2(F)F)c(=O)n1 (stereo not given) + C=CC(=O)N1CCN(c2nc(OCC3CCCN3C)nc3c(F)c(-c4nc(N)cc(C)c4C(F)(F)F)c(Cl)cc23)C(C)C1 | 695427-040-R-J1-PDC complex spheroid viability | Criterion not met
CC(C)n1nc(-c2ccc3oc(N)nc3c2)c2c(N)ncnc21 + C#Cc1c(F)ccc2cc(O)cc(-c3ncc4c(N5CC6CCC(C5)N6)nc(OCC56CCCN5CC(F)C6)nc4c3F)c12 | 695427-040-R-J1-PDC complex spheroid viability | Criterion met
C=CC(=O)Nc1cc(Nc2nccc(-c3cn(C)c4ccccc34)n2)c(OC)cc1N(C)CCN(C)C + C=CC(=O)N1CCN(c2nc(OCC3CCCN3C)nc3c(F)c(-c4nc(N)cc(C)c4C(F)(F)F)c(Cl)cc23)C(C)C1 | 695427-040-R-J1-PDC complex spheroid viability | Criterion not met
CC(C)n1nc(-c2ccc3oc(N)nc3c2)c2c(N)ncnc21 + C=CC(=O)N1CCN(c2nc(OCC3CCCN3C)nc3c(F)c(-c4nc(N)cc(C)c4C(F)(F)F)c(Cl)cc23)C(C)C1 | 695427-040-R-J1-PDC complex spheroid viability | Criterion not met

# ---- query compound ----
Request: Quick check: does Nc1ccn(C2OC(CO)C(O)C2(F)F)c(=O)n1 (stereo not given) + C#Cc1c(F)ccc2cc(O)cc(-c3ncc4c(N5CC6CCC(C5)N6)nc(OCC56CCCN5CC(F)C6)nc4c3F)c12 have viability, T/C under 60%?
Result: Criterion not met

---

System: 695427-040-R-J1-PDC complex spheroid viability
Assay: Anticancer human tumor 695427-040-R-J1-PDC cell line growth inhibition [RAS];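 note: viability read after seven days of drug exposure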;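 for viability, T/C: 100% = DMSO vehicle control viability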
Conditions: second compound 1 µM; first compound 0.01 µM; stronger effect = lower value
Source text: RAS pathway inhibitors in Combinations in Complex Spheroids A high-throughput screen of multi-cell type tumor spheroids was designed to identify active combinations of RAS pathway inhibitors and targeted small molecules. Complex spheroids include a stromal component modeled by human endothelial cells (HUVEC) and fibroblasts modeled by human mesenchymal stem cells (MSCs). […] Compounds. […] If the clinical Cmax for an agent had not been determined, the highest concentration tested was 10 microM. […]
Sorting guide: entries reporting viability, T/C beneath 80% go in the y pile, the rest go in the n pile.

# example entries with known answers
compound | labelClass
CCN1CCN(Cc2ccc(Nc3ncc(F)c(-c4cc(F)c5nc(C)n(C(C)C)c5c4)n3)nc2)CC1 + C#Cc1c(F)ccc2cc(O)cc(-c3ncc4c(N5CC6CCC(C5)N6)nc(OCC56CCCN5CC(F)C6)nc4c3F)c12 | y
O=C(c1ccc(F)c(F)c1Nc1ccc(I)cc1F)N1CC(O)([C@@H]2CCCCN2)C1 + C#Cc1c(F)ccc2cc(O)cc(-c3ncc4c(N5CC6CCC(C5)N6)nc(OCC56CCCN5CC(F)C6)nc4c3F)c12 | y

Request: API: query returns whether the compound falls strictly under 80% in viability, T/C. Query: CCN1CCN(Cc2ccc(Nc3ncc(F)c(-c4cc(F)c5nc(C)n(C(C)C)c5c4)n3)nc2)CC1 + C=CC(=O)N1CCN(c2nc(OCC3CCCN3C)nc3c(F)c(-c4nc(N)cc(C)c4C(F)(F)F)c(Cl)cc23)C(C)C1
Result: n

---

tested on: 695427-040-R-J1-PDC complex spheroid viability; assay: Anticancer human tumor 695427-040-R-J1-PDC cell line growth inhibition [RAS]; settings: curve of first compound; second compound 0.00949 µM;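 note: viability read after seven days of drug exposure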
quantityName: pIC50
Interpret pIC50 as the negative base-10 log of the concentration measured in mol/L.

compound | systemUnderTest | pIC50
CCc1c2c(nc3ccc(O)cc13)-c1cc3c(c(=O)n1C2)COC(=O)[C@]3(O)CC + CCn1c(-c2cccnc2C(C)OC)c2c3cc(ccc31)N1CCOC(CC(NC(=O)C(C(C)C)N(C)C(=O)C3(F)CCN(C(=O)C#CC(C)(C)N(C)C)CC3)C(=O)N3CCCC(N3)C(=O)OCC(C)(C)C2)C1 | 695427-040-R-J1-PDC complex spheroid viability | 7.31

The record that follows has no pIC50 shown yet.
Request: Param readout= pIC50; system= 695427-040-R-J1-PDC complex spheroid viability; entry= O=C(c1ccc(F)c(F)c1Nc1ccc(I)cc1F)N1CC(O)([C@@H]2CCCCN2)C1 + CCn1c(-c2cccnc2C(C)OC)c2c3cc(ccc31)N1CCOC(CC(NC(=O)C(C(C)C)N(C)C(=O)C3(F)CCN(C(=O)C#CC(C)(C)N(C)C)CC3)C(=O)N3CCCC(N3)C(=O)OCC(C)(C)C2)C1 ; returns value.
Result: 7.10

---

tested on: 695427-040-R-J1-PDC complex spheroid viability; assay: Anticancer human tumor 695427-040-R-J1-PDC cell line growth inhibition [RAS]; settings: second compound 0.0949 µM; first compound 0.1 µM; stronger effect = lower value;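 note: viability read after seven days of drug exposure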;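 for viability, T/C: 100% = DMSO vehicle control viability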
Known viability, T/C of a selection of compounds
Number only, in %; omit the unit.

// solved cases for viability, T/C follow
compound | systemUnderTest | viability, T/C [%]
NC1c2ccccc2OC12CCN(c1cnc3c(N4CCCc5ncccc54)n[nH]c3n1)CC2 (centres undefined) + CCn1c(-c2cccnc2C(C)OC)c2c3cc(ccc31)N1CCOC(CC(NC(=O)C(C(C)C)N(C)C(=O)C3(F)CCN(C(=O)C#CC(C)(C)N(C)C)CC3)C(=O)N3CCCC(N3)C(=O)OCC(C)(C)C2)C1 | 695427-040-R-J1-PDC complex spheroid viability | 67.4
C=CC(=O)N1CCN(c2nc(OCC3CCCN3C)nc3c(F)c(-c4nc(N)cc(C)c4C(F)(F)F)c(Cl)cc23)C(C)C1 (centres undefined) + CCn1c(-c2cc(N3CCN(C)CC3)cnc2C(C)OC)c2c3cc(ccc31)-c1csc(n1)CC(NC(=O)C1CC1C)C(=O)N1CCCC(N1)C(=O)OCC(C)(C)C2 | 695427-040-R-J1-PDC complex spheroid viability | 42.8
CC1(O)CCCC1n1c(=O)c(C(F)F)cc2cnc(NC3CCN(S(C)(=O)=O)CC3)nc21 (centres undefined) + CCn1c(-c2cc(N3CCN(C)CC3)cnc2C(C)OC)c2c3cc(ccc31)-c1csc(n1)CC(NC(=O)C1CC1C)C(=O)N1CCCC(N1)C(=O)OCC(C)(C)C2 | 695427-040-R-J1-PDC complex spheroid viability | 42.1

Request: Value lookup for viability, T/C; key = CC(=O)OC12COC1CC(O)C1(C)C(=O)C(O)C3=C(C)C(OC(=O)C(O)C(NC(=O)OC(C)(C)C)c4ccccc4)CC(O)(C(OC(=O)c4ccccc4)C21)C3(C)C (centres undefined) + CCn1c(-c2cccnc2C(C)OC)c2c3cc(ccc31)N1CCOC(CC(NC(=O)C(C(C)C)N(C)C(=O)C3(F)CCN(C(=O)C#CC(C)(C)N(C)C)CC3)C(=O)N3CCCC(N3)C(=O)OCC(C)(C)C2)C1
Result: 51.4

---

Listing of entries alongside the reported viability, T/C.
test system: 695427-040-R-J1-PDC complex spheroid viability; test: Anticancer human tumor 695427-040-R-J1-PDC cell line growth inhibition [RAS]; details: second compound 0.000949 µM; first compound 10 µM; stronger effect = lower value;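 note: viability read after seven days of drug exposure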;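 for viability, T/C: 100% = DMSO vehicle control viability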
Your answer should be a plain number; it is taken to be in %.

These recorded examples may help you get a feel for the data.
molecule | systemUnderTest | recordedNumber
C[C@@H](NC(=O)c1ncnc(N)c1Cl)c1ncc(C(=O)Nc2cc(C(F)(F)F)c(Cl)cn2)s1 + CCn1c(-c2cc(N3CCN(C)CC3)cnc2C(C)OC)c2c3cc(ccc31)-c1csc(n1)CC(NC(=O)C1CC1C)C(=O)N1CCCC(N1)C(=O)OCC(C)(C)C2 | 695427-040-R-J1-PDC complex spheroid viability | 78.5
NC1c2ccccc2OC12CCN(c1cnc3c(N4CCCc5ncccc54)n[nH]c3n1)CC2 (centres undefined) + CCn1c(-c2cccnc2C(C)OC)c2c3cc(ccc31)N1CCOC(CC(NC(=O)C(C(C)C)N(C)C(=O)C3(F)CCN(C(=O)C#CC(C)(C)N(C)C)CC3)C(=O)N3CCCC(N3)C(=O)OCC(C)(C)C2)C1 | 695427-040-R-J1-PDC complex spheroid viability | 43.2
C[C@@H](NC(=O)c1ncnc(N)c1Cl)c1ncc(C(=O)Nc2cc(C(F)(F)F)c(Cl)cn2)s1 + CCn1c(-c2cccnc2C(C)OC)c2c3cc(ccc31)N1CCOC(CC(NC(=O)C(C(C)C)N(C)C(=O)C3(F)CCN(C(=O)C#CC(C)(C)N(C)C)CC3)C(=O)N3CCCC(N3)C(=O)OCC(C)(C)C2)C1 | 695427-040-R-J1-PDC complex spheroid viability | 85.7

With those in mind, consider the next molecule.
Request: Consider the molecule CC(=O)OC12COC1CC(O)C1(C)C(=O)C(O)C3=C(C)C(OC(=O)C(O)C(NC(=O)OC(C)(C)C)c4ccccc4)CC(O)(C(OC(=O)c4ccccc4)C21)C3(C)C (centres undefined) + CCn1c(-c2cc(N3CCN(C)CC3)cnc2C(C)OC)c2c3cc(ccc31)-c1csc(n1)CC(NC(=O)C1CC1C)C(=O)N1CCCC(N1)C(=O)OCC(C)(C)C2 and give its measured viability, T/C.
Result: 52.7
